Assay: NCI Yeast Anticancer Drug Screen. Data for the wt1 strain (AID 149);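 further: 0% = growth of vehicle-treated wt1 cultures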
Details: S. cerevisiae wt1 strain (SPY 50644) growth inhibition; at 100.0 µM
About 79,000 compounds went through this panel and 15% of them were active in at least one assay; those are over-represented in the sample as a whole. Calls of active or inactive are those of the source. No stated cut-off is given here; in the data, active means growth inhibition above about 70%; inactive means the rest.
// classify into T = active, F = inactive

CC(=O)Nc1ccc(SC(C)=O)cc1 ... T
COc1cc(C2c3cc4c(cc3OC(Nc3ccccc3)C2C)OCO4)cc(OC)c1O (stereo unspecified) ... F
COC(=O)c1ccc([N+](=O)[O-])c(O)c1 ... T
O=C1c2cc([N+](=O)[O-])ccc2-c2cccc(F)c21 ... F
CC(C)(Br)C(=O)/C=C/c1ccc(Cl)c(Cl)c1 ... F

Next:
Task item: For "O=CC=C(c1ccccc1)c1ccccc1" , which call appears in the assay record?
Reply: T

###

Assay: NCI Yeast Anticancer Drug Screen. Data for the rad50EPP+ strain (AID 151);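 further: 0% = growth of vehicle-treated control cultures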
Conditions: S. cerevisiae rad50 mutant strain, at 3.7 µM, hits give high values
Compounds without any hit were thinned out: in the full panel of roughly 79,000, 15% have a hit.
REPORTED_PROPERTY: growth inhibition (%)
One number for each entry, in %.

CCCCCCCCC/C=C/C=C/C(=O)NCC(=O)NC1C(O)C(O)C(Nc2ncnc3nc[nH]c23)OC1C(O)CO (stereo unspecified) ... -17
CCCCCCCCCCCC(=O)N(C)C ... 18
CN(C)CCOc1ccc2c(c1)C/C(=C/c1ncc([N+](=O)[O-])n1C)C2=O ... 6
COC1=CC(=O)C(C2(OC(C)C)OC(=O)C(Cl)=C2Cl)=CC1=O (stereo unspecified) ... 48
Nc1ccccc1CC(O)C(=O)O (stereo unspecified) ... 1

Consider now this further compound.
growth inhibition reading for "CC(C)OC(=O)Oc1ccccc1OC(=O)OC(C)C" : 2

###

Field: growth inhibition. Provide a value for each of the compounds that follow.
Test: NCI Yeast Anticancer Drug Screen. Data for the mec2-1 strain (AID 157)
Details: S. cerevisiae mec2-1 strain, at 50.0 µM (retest, dose inferred, filed as 5.0), hits give high values
This is part of a sample that, as a whole, favours compounds with a hit. Of some 79,000 tested, about 15% had one in any assay.
Numbers only, in %.

BrCc1cccc2ccc3cccc(CBr)c3c12 ... 97
CC(=O)Oc1ccc2c(c1)Cc1cc(N=C3C=CC(=O)O3)ccc1-2 ... 99
O=Nc1c(NO)ccc2nn(-c3ccccc3)nc12 ... 99

I have 2 compounds here; please give me growth inhibition for each one.
1. CCS(=O)(=O)c1ccc(/C=C/C=N/NC(=S)NCC(C)C)cc1
2. c1ccc2c(c1)c1ncccc1c1nccnc21

Reply:
-24
-53

###

Assay: NCI Yeast Anticancer Drug Screen. Data for the bub3 strain (AID 167)
Settings: S. cerevisiae bub3 mutant strain, at 11.0 µM, hits give high values
The panel holds about 79,000 compounds, 15% with a hit somewhere; the sample as a whole holds those more often.
REPORTED_PROPERTY: growth inhibition (%)
Numbers only, in %.

Example cases with answers are listed next.
COC1=CC(=O)C2C(C1=O)C(c1ccc(Cl)cc1)[C@@H]2C (some centres not stated) ... 99
OC(COc1cccc2ccccc12)CN1CCOCC1 (configuration not stated) ... 29

Parameters: items (list). Returns: growth inhibition for each item.
1. COC(=O)c1ccc(NCC2=CC(=O)C=CC2=O)cc1O
2. CCCN(CCC)CC(O)c1cc(-c2ccc(Cl)cc2)nc2c(C)c(Cl)ccc12 (configuration not stated)
3. COc1ccc(N=C2C(=O)Nc3ccc(Br)cc32)cc1
4. O=C1c2ccccc2C(=O)c2cc(CBr)ccc21
5. Cc1ccc(N)c(S)c1
6. CC(=O)[O][Bi]([c]1ccccc1)[c]1ccccc1
7. CCCS(=O)(=O)Nc1ccc(Nc2c3ccccc3nc3ccccc23)c(OC)c1
8. CSC(=S)N/N=C(\C)c1cccc(C)n1

Reply:
1. 20
2. 99
3. -2
4. 1
5. 48
6. 56
7. -45
8. 9

Numbers sourced from PubChem BioAssay (NCI).
